- Test system: REH (ALL)
- procedure details: In vitro cytotoxicity, MTT assay, REH
- Format: cell-based
- measurement conditions: 72 h, read-out: Cytotoxicity
- Description: The in vitro cytotoxicity of a selection of compounds were evaluated in a panel of cell lines using the standard MTT assay for a 72 hour incubation period (Table 2). Free payloads produced cytotoxicities in the nanomolar range. Tumor cell lines were maintained in RPMI1640 medium supplemented with 10% heat-inactivated fetal bovine serum, 2 mM L-glutamine and 1 mM sodium pyruvate. […] Cytotoxicity was evaluated using a tetrazolium salt-based assay, the MTT assay. […]
measured metric: pIC50
Kindly note that pIC50 refers to -log10 of the concentration in mol/L and answer with the value alone.

Give pIC50 for the following molecule: COc1cc2c(cc1OCCCC(=O)Nc1cc(C(=O)Nc3ccc(-c4cc(C(=O)Nc5ccccc5)n(C)c4)cc3)n(C)c1)NC[C@@H]1CCCCN1C2=O 7.53

Give pIC50 for the following molecule: COc1cc2c(cc1OCCCC(=O)Nc1cc(C(=O)Nc3ccc(-c4cc(C(=O)Nc5ccc(N)cc5)n(C)c4)cc3)n(C)c1)NC[C@@H]1CCCCN1C2=O 6.84

###

- Tested on: SW620
- procedure details: In vitro cell-killing, MTT assay, SW620
- Type: cell-based
- measurement conditions: Homo sapiens, SW-620, 72 h, read-out: In vitro cell-killing (IC50), Cytotoxicity (72 hours)
measured metric: pIC50
Kindly note that pIC50 refers to -log10 of the concentration in mol/L and answer with the value alone.

Give pIC50 for the following molecule: COc1cc2c(cc1OCCCC(=O)Nc1cc(C(=O)Nc3ccc(-c4cc(C(=O)Nc5ccc(N)cc5)n(C)c4)cc3)n(C)c1)NC[C@@H]1CCCCN1C2=O [Compound 16] 7.10
